B1: Chromodomain-helicase-DNA-binding protein 5, residues 338 to 390; numbered along this chain, Q8TDI0 (parent)
chain: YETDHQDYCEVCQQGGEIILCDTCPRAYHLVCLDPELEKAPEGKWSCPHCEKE

- Variants of: B1
- Assay name: abundance fitness (aPCA) (normalised: wild type 0, dead -1); higher = more abundant; growth selection in yeast, the domain comes from the species named
- Conditions: Homo sapiens
abundance fitness for assorted variants

>  <Variant descriptor>
E51Q

>  <abundance fitness>
-0.005

$$$$
>  <Variant descriptor>
E38K

>  <abundance fitness>
-0.199

$$$$
>  <Variant descriptor>
E17P

>  <abundance fitness>
-0.445

$$$$
>  <Variant descriptor>
P41R

>  <abundance fitness>
-0.075

$$$$
>  <Variant descriptor>
A27I

>  <abundance fitness>
-0.021

$$$$
>  <Variant descriptor>
D34F

>  <abundance fitness>
-0.058

$$$$
>  <Variant descriptor>
A27E

>  <abundance fitness>
-0.55

$$$$
>  <Variant descriptor>
L20S

>  <abundance fitness>
0.233

$$$$
>  <Variant descriptor>
W45Y

>  <abundance fitness>
-0.293

$$$$
>  <Variant descriptor>
E36W

>  <abundance fitness>
-0.321

$$$$
>  <Variant descriptor>
K39T

>  <abundance fitness>
-0.029

$$$$
>  <Variant descriptor>
C32L

>  <abundance fitness>
-0.993

$$$$
>  <Variant descriptor>
P41V

>  <abundance fitness>
-0.096

$$$$
>  <Variant descriptor>
H49S

>  <abundance fitness>
-0.312

$$$$
>  <Variant descriptor>
A27R

>  <abundance fitness>
-0.086

$$$$
>  <Variant descriptor>
T23R

>  <abundance fitness>
-0.12

$$$$
>  <Variant descriptor>
E51L

>  <abundance fitness>
-0.105

$$$$
>  <Variant descriptor>
P25G

>  <abundance fitness>
-0.001

$$$$
>  <Variant descriptor>
E17L

>  <abundance fitness>
-0.096

$$$$
>  <Variant descriptor>
A27W

>  <abundance fitness>
-0.186

$$$$
>  <Variant descriptor>
I19G

>  <abundance fitness>
-0.177

$$$$
>  <Variant descriptor>
S46C

>  <abundance fitness>
0.073

$$$$
>  <Variant descriptor>
A40N

>  <abundance fitness>
0.187

$$$$
>  <Variant descriptor>
E38R

>  <abundance fitness>
-0.147

$$$$
>  <Variant descriptor>
E42L

>  <abundance fitness>
-0.05

$$$$
>  <Variant descriptor>
A27F

>  <abundance fitness>
-0.027

$$$$
>  <Variant descriptor>
P35N

>  <abundance fitness>
-0.211

$$$$
>  <Variant descriptor>
Y28P

>  <abundance fitness>
-0.85

$$$$
>  <Variant descriptor>
K52R

>  <abundance fitness>
-0.109

$$$$
>  <Variant descriptor>
K44Q

>  <abundance fitness>
-0.053

$$$$
>  <Variant descriptor>
L33V

>  <abundance fitness>
-0.034

$$$$
>  <Variant descriptor>
H29N

>  <abundance fitness>
-0.766

$$$$
>  <Variant descriptor>
L33P

>  <abundance fitness>
-0.223

$$$$
>  <Variant descriptor>
C47N

>  <abundance fitness>
-0.953

$$$$
>  <Variant descriptor>
W45F

>  <abundance fitness>
-0.05

$$$$
>  <Variant descriptor>
W45Q

>  <abundance fitness>
-0.29

$$$$
>  <Variant descriptor>
E38L

>  <abundance fitness>
-0.115

$$$$
>  <Variant descriptor>
S46D

>  <abundance fitness>
-0.197

$$$$
>  <Variant descriptor>
E42T

>  <abundance fitness>
0.014

$$$$
>  <Variant descriptor>
H29Q

>  <abundance fitness>
-0.887

$$$$
>  <Variant descriptor>
G16R

>  <abundance fitness>
0.098

$$$$
>  <Variant descriptor>
C50R

>  <abundance fitness>
-0.71

$$$$
>  <Variant descriptor>
K52I

>  <abundance fitness>
-1.1

$$$$
>  <Variant descriptor>
I19N

>  <abundance fitness>
0.161

$$$$
>  <Variant descriptor>
G16L

>  <abundance fitness>
0.239

$$$$
>  <Variant descriptor>
E53G

>  <abundance fitness>
0.086

$$$$
